assay: amyloid nucleation score (Sup35N fusion, yeast selection) (log enrichment); library NNK1; higher = more nucleation; inactive = no reads after selection;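 further: zero at mode of non-aggregating sequences after 7 days selection at 30°C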
observable: amyloid nucleation score
Lab note: jot the number down without any unit.

Previously resolved entries follow.
[
  {
    "substance": "VHGGAWLTGGSRTGAQFIAV",
    "amyloid nucleation score": -0.402
  },
  {
    "substance": "WFGLQYMSWVSIESYGQAAW",
    "amyloid nucleation score": 0.875
  },
  {
    "substance": "NCRMTGCLSQRRQKECCNRI",
    "amyloid nucleation score": -0.755
  },
  {
    "substance": "NRKRFHGMNDASAAYFREVC",
    "amyloid nucleation score": -1.33
  },
  {
    "substance": "SAGHLNYNEWLNGCGDRGKC",
    "amyloid nucleation score": -0.367
  }
]

For `WTTMFAFAF` the substance record lists amyloid nucleation score as 1.42

For `QPLLTQQK` the substance record lists amyloid nucleation score as 0.086

For `SMVRYTMDSKVKKRSSVVVG` the substance record lists amyloid nucleation score as 3.56

For `GFECSCKYHDFTGSALCNTL` the substance record lists amyloid nucleation score as 0.613

For `FFFHSKDVYYGDFVHLSFAG` the substance record lists amyloid nucleation score as -0.352

For `LKRVCNS` the substance record lists amyloid nucleation score as 0.002

For `NTLSISDSYVEYETWEVIPV` the substance record lists amyloid nucleation score as 1.62

For `VFNCWCLTEFFVMYGIVCQK` the substance record lists amyloid nucleation score as 4.52

For `LWWLHGDLLLSWGFRMLWPL` the substance record lists amyloid nucleation score as 0.117

For `RYNTPNGVYICLNA` the substance record lists amyloid nucleation score as -1.03

For `LSDLDIRKQLVYMRSIRVGT` the substance record lists amyloid nucleation score as -0.339

For `SSITVITVATQVEYNTVHDF` the substance record lists amyloid nucleation score as 1.37

For `YFCILGSNDSNRIGWPRRST` the substance record lists amyloid nucleation score as 0.101

----------
test: amyloid nucleation score (Sup35N fusion, yeast selection) (log enrichment); library NNK2; higher = more nucleation; inactive = no reads after selection
# label = MET if amyloid nucleation score >= -0.2 else NOT MET

[
  {
    "primary.sequence": "AESWVNYRGRDV",
    "cat": "MET"
  }
]

Problem: Hi team, for `WYAAGLKNR` , is the recorded amyloid nucleation score at or above -0.2?
Solution: NOT MET

Problem: Hi team, for `LHVHLGSEGPLHNKIVDAAK` , is the recorded amyloid nucleation score at or above -0.2?
Solution: MET

Problem: Hi team, for `VRFWSLMCYACFSQSGSRVR` , is the recorded amyloid nucleation score at or above -0.2?
Solution: MET

Problem: Hi team, for `SFPAGICPLMRLVYVNMGVG` , is the recorded amyloid nucleation score at or above -0.2?
Solution: NOT MET

Problem: Hi team, for `VHMVPHCATW` , is the recorded amyloid nucleation score at or above -0.2?
Solution: MET

Problem: Hi team, for `WANFWSGWKVTLVCCCKIVA` , is the recorded amyloid nucleation score at or above -0.2?
Solution: MET

Problem: Hi team, for `FMRMALAGPDKF` , is the recorded amyloid nucleation score at or above -0.2?
Solution: NOT MET

Problem: Hi team, for `FLRNWGTAWLVGFNSAKFIC` , is the recorded amyloid nucleation score at or above -0.2?
Solution: NOT MET

----------
experiment: amyloid nucleation score (Sup35N fusion, yeast selection) (log enrichment); library NNK2; higher = more nucleation; inactive = no reads after selection
# label = met if amyloid nucleation score >= 0.5 else not met

[
  {
    "primary.sequence": "RGRLMCSYLILNFCRSG",
    "cat": "met"
  },
  {
    "primary.sequence": "YTVYFSVGVVVE",
    "cat": "not met"
  }
]

Problem: Hi team, for `AGWRLVTQDRLSLLNQTDVF` , is the recorded amyloid nucleation score at or above 0.5?
Solution: met

Problem: Hi team, for `YIISYFLKMGSQ` , is the recorded amyloid nucleation score at or above 0.5?
Solution: met

Problem: Hi team, for `VYVIFPPLSTSLPVSMSYNL` , is the recorded amyloid nucleation score at or above 0.5?
Solution: not met

Problem: Hi team, for `SVYVCVKWESVSVLVLY` , is the recorded amyloid nucleation score at or above 0.5?
Solution: met

----------
assay: amyloid nucleation score (Sup35N fusion, yeast selection) (log enrichment); library NNK1; higher = more nucleation; inactive = no reads after selection
# label = 1 if amyloid nucleation score >= 0.5 else -1

Here are 5 substances together with their reported answers.
[
  {
    "substance": "GRMLLM",
    "cat": -1
  },
  {
    "substance": "CCHRGCGAFVGWMHQFGWYI",
    "cat": -1
  },
  {
    "substance": "STPAVDALRYCMTSIAFRKI",
    "cat": -1
  },
  {
    "substance": "TSQTMTCWGSAL",
    "cat": 1
  },
  {
    "substance": "RKWRVCDKND",
    "cat": -1
  }
]

Problem: Hi team, for `RDIILGVLDRCSHCKNRALI` , is the recorded amyloid nucleation score at or above 0.5?
Solution: -1

Problem: Hi team, for `TRGCLRPATSKSGMRPW` , is the recorded amyloid nucleation score at or above 0.5?
Solution: -1

Problem: Hi team, for `STYPLEEYKGSGCLAG` , is the recorded amyloid nucleation score at or above 0.5?
Solution: -1

Problem: Hi team, for `RGLSNA` , is the recorded amyloid nucleation score at or above 0.5?
Solution: 1

----------
experiment: amyloid nucleation score (Sup35N fusion, yeast selection) (log enrichment); library NNK2; higher = more nucleation; inactive = no reads after selection
# label = 1 if amyloid nucleation score >= -0.2 else -1

Here are 2 substances together with their reported answers.
[
  {
    "substance": "RSWVLLSYAPFHCS",
    "cat": 1
  },
  {
    "substance": "CSRRYSLRL",
    "cat": -1
  }
]

Now look at this one.
Problem: Hi team, for `WVSRTNELFGPDRLWIDLWH` , is the recorded amyloid nucleation score at or above -0.2?
Solution: 1

----------
assay: amyloid nucleation score (Sup35N fusion, yeast selection) (log enrichment); library NNK2; higher = more nucleation; inactive = no reads after selection
# label = TRUE if amyloid nucleation score >= 0.4 else FALSE

[
  {
    "substance": "VMLHPSNSLALNCLT",
    "cat": "FALSE"
  },
  {
    "substance": "GHVTYLVTAPHV",
    "cat": "TRUE"
  },
  {
    "substance": "VNMLEQKGRMSDETPCTATP",
    "cat": "FALSE"
  },
  {
    "substance": "FNVSYSISMMLKRGVCAHCW",
    "cat": "TRUE"
  },
  {
    "substance": "GYCSDGWFAECTEWEAPVSR",
    "cat": "FALSE"
  }
]

Problem: Hi team, for `SCYIDRTRYWDGYFLLCSMD` , is the recorded amyloid nucleation score at or above 0.4?
Solution: TRUE

Problem: Hi team, for `IMSSVELWENHYCGDVCMIV` , is the recorded amyloid nucleation score at or above 0.4?
Solution: TRUE

Problem: Hi team, for `SRSCVKH` , is the recorded amyloid nucleation score at or above 0.4?
Solution: FALSE

Problem: Hi team, for `AVFRLFASVPGFNRRPGLEQ` , is the recorded amyloid nucleation score at or above 0.4?
Solution: FALSE

Problem: Hi team, for `FLLSVGSHCMPVHEYGMTNA` , is the recorded amyloid nucleation score at or above 0.4?
Solution: TRUE

Problem: Hi team, for `CEWHYRRGFMMIGVMWNAVF` , is the recorded amyloid nucleation score at or above 0.4?
Solution: TRUE

Problem: Hi team, for `VIRSSFFFSLELSSREEFGY` , is the recorded amyloid nucleation score at or above 0.4?
Solution: FALSE

Problem: Hi team, for `VTVLTGVG` , is the recorded amyloid nucleation score at or above 0.4?
Solution: TRUE

Problem: Hi team, for `LFVASVSLTAHNRGGDTWRR` , is the recorded amyloid nucleation score at or above 0.4?
Solution: TRUE

Problem: Hi team, for `GWFKESVFLGFWVRISNSQV` , is the recorded amyloid nucleation score at or above 0.4?
Solution: FALSE

----------
assay: amyloid nucleation score (Sup35N fusion, yeast selection) (log enrichment); library NNK2; higher = more nucleation; inactive = no reads after selection
observable: amyloid nucleation score
Lab note: jot the number down without any unit.

Previously resolved entries follow.
[
  {
    "substance": "LNTEMGSLKNL",
    "amyloid nucleation score": 3.08
  },
  {
    "substance": "WVYDVQSCIMTPMSGYWFIL",
    "amyloid nucleation score": -0.476
  },
  {
    "substance": "FTFIGGYVSYYRCIPIGILP",
    "amyloid nucleation score": 0.33
  },
  {
    "substance": "YQGNIRVGISRSRK",
    "amyloid nucleation score": 0.36
  },
  {
    "substance": "SVYDPAYVLNMNTLSTSSNL",
    "amyloid nucleation score": 0.451
  }
]

For `MISVVRKPPLIISVIRSRWD` the substance record lists amyloid nucleation score as 0.687

For `VCNRPI` the substance record lists amyloid nucleation score as -0.78

For `INTSNQFFGYLYLWVSRYRY` the substance record lists amyloid nucleation score as -1.03

For `WDTSGRFVLNWVFWEGHPKM` the substance record lists amyloid nucleation score as 0.768

For `AFTACRYMVSPFFSLMFSTS` the substance record lists amyloid nucleation score as 0.265

For `VVSVFSSYVRQCCYGGWEV` the substance record lists amyloid nucleation score as 6.67

For `LGYFFGSTFSRAVLFVRLRR` the substance record lists amyloid nucleation score as -0.097

For `TDLECKQLG` the substance record lists amyloid nucleation score as 1.88
